assay: Henry solubility constant Hcp at 298.15 K (mol/(m3 Pa)); details: reference: Kondoh and Nakajima (1997)
Consider the reported Henry solubility constant Hcp of an entry and match it to a band in low (below 0.001), moderate (0.001 to below 0.005), high (0.005 or more)

>  <compound>
ClC(Cl)Br

>  <qualitative-label>
high

$$$$
>  <compound>
ClCC(Cl)(Cl)Cl

>  <qualitative-label>
moderate

$$$$
>  <compound>
Clc1ccccc1

>  <qualitative-label>
moderate

$$$$
>  <compound>
Cc1ccccc1

>  <qualitative-label>
moderate

$$$$
>  <compound>
CC(C)(Cl)Cl

>  <qualitative-label>
low

$$$$
>  <compound>
ClCCCCl

>  <qualitative-label>
high

$$$$
>  <compound>
CCc1ccccc1

>  <qualitative-label>
moderate

$$$$
>  <compound>
Clc1cccc(Cl)c1Cl

>  <qualitative-label>
high

$$$$
>  <compound>
ClCC(Cl)CCl

>  <qualitative-label>
high

$$$$
>  <compound>
Cl/C=C\CCl [cis-1,3-dichloropropene]

>  <qualitative-label>
high

$$$$
>  <compound>
CCCc1ccccc1

>  <qualitative-label>
moderate

$$$$
>  <compound>
ClC(Cl)=C(Cl)Cl

>  <qualitative-label>
low

$$$$
>  <compound>
ClC(Cl)=C(Cl)C(Cl)=C(Cl)Cl

>  <qualitative-label>
low

$$$$
>  <compound>
Cc1ccccc1C

>  <qualitative-label>
moderate

$$$$
>  <compound>
C=Cc1ccccc1

>  <qualitative-label>
moderate

$$$$
>  <compound>
ClCCl

>  <qualitative-label>
moderate

$$$$
>  <compound>
ClCBr

>  <qualitative-label>
high

$$$$
>  <compound>
c1ccccc1

>  <qualitative-label>
moderate

$$$$
>  <compound>
ClC(Br)Br

>  <qualitative-label>
high

$$$$
>  <compound>
CCCCc1ccccc1

>  <qualitative-label>
low

$$$$
>  <compound>
Clc1ccc(Cl)cc1

>  <qualitative-label>
moderate

$$$$
>  <compound>
C=C(Cl)Cl

>  <qualitative-label>
low

$$$$
>  <compound>
BrC(Br)Br

>  <qualitative-label>
high

$$$$
>  <compound>
Cc1cccc(C)c1

>  <qualitative-label>
moderate

$$$$
>  <compound>
BrCBr

>  <qualitative-label>
high

$$$$
>  <compound>
c1ccc2ccccc2c1

>  <qualitative-label>
high

$$$$
>  <compound>
CCC(C)c1ccccc1 (centres undefined)

>  <qualitative-label>
low

$$$$
>  <compound>
ClC=C(Cl)Cl

>  <qualitative-label>
moderate

$$$$
>  <compound>
ClC(Cl)(Cl)Cl

>  <qualitative-label>
low

$$$$
>  <compound>
Clc1cccc(Cl)c1

>  <qualitative-label>
moderate

$$$$
>  <compound>
CC(Cl)CCl (centres undefined)

>  <qualitative-label>
moderate

$$$$
>  <compound>
Cc1ccc(C)c(C)c1

>  <qualitative-label>
moderate

$$$$
>  <compound>
CC(C)(C)c1ccccc1

>  <qualitative-label>
low

$$$$
>  <compound>
ClCC(Cl)Cl

>  <qualitative-label>
high

$$$$
>  <compound>
Cc1cc(C)cc(C)c1

>  <qualitative-label>
moderate

$$$$
>  <compound>
Cl/C=C/CCl [trans-1,3-dichloropropene]

>  <qualitative-label>
high

$$$$
>  <compound>
CC(Cl)(Cl)Cl

>  <qualitative-label>
low

$$$$
>  <compound>
Cc1ccc(Cl)cc1

>  <qualitative-label>
moderate

$$$$
>  <compound>
CC=C(Cl)Cl

>  <qualitative-label>
low

$$$$
>  <compound>
Cc1ccc(C)cc1

>  <qualitative-label>
moderate

$$$$
>  <compound>
ClCC(Br)CBr (centres undefined)

>  <qualitative-label>
high

$$$$
